Origin of measurements: patent US6548715B1

targetDesc: human DBP (vitamin D binding protein) (Homo sapiens, UniProt P02774)
Sequence (P02774 17-474): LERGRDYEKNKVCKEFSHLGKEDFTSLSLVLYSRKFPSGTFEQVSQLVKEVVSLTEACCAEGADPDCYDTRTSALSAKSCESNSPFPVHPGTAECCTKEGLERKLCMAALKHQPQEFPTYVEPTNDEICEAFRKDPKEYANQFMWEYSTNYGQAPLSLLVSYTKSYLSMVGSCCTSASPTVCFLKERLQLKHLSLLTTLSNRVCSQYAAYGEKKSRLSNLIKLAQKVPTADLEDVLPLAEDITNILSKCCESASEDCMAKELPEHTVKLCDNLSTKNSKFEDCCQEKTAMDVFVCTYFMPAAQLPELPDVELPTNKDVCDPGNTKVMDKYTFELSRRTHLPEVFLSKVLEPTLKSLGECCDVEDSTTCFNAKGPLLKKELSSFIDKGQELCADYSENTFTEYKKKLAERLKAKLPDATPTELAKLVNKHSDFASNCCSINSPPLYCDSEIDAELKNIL
testSummary: Relative affinity for purified human vitamin D-binding protein (hDBP)
conditions: % of the activity of 1α,25-(OH)2D3 at 50% of its activity (B50)
quantity: Affinity for human DBP (%)
Form entry: value (%) — number only.

// worked examples, Affinity for human DBP included
1) C=C1/C(=C\C=C2/CCC[C@](C)([C@H](C)[C@H](C)CC[C@@H](O)C(C)C)C2)C[C@@H](O)C[C@@H]1O [Compound 5] :: 10
2) C=C1C(=CC=CCC2(C)CCC(OCCC(O)(CC)CC)C2(C)C)CC(O)CC1O (stereo not shown) [Compound 18] :: 0
3) C=C1/C(=C\C=C\[C@@H]2CC[C@](C)(CCCCC(O)(CC)CC)C2(C)C)C[C@@H](O)C[C@@H]1O [Compound 38] :: 2
4) C=C1/C(=C\C=C2/CCC[C@](C)([C@H](C)[C@H](C)CC[C@H](O)C(C)C)C2)C[C@@H](O)C[C@@H]1O [Compound 4] :: 5
5) C=C1C(=CC=CCC2(C)CCC(CCCCC(O)(CC)CC)C2(C)C)CC(O)CC1O (stereo not shown) [Compound 20] :: 8

Next, consider the following molecule.
// query Note down Affinity for human DBP recorded for CC(CCCC(C)(C)O)C(C)C1(C)CCCC(=CC=C2CC(O)CC(O)C2)C1 (stereo not shown) [Compound 8]
// result 3

* * *

Test system: vitamin D-deficient chicks
testSummary: Calcemic effect in vitamin D-deficient chicks (serum calcium)
Format: in vivo, chick
conditions: % of the activity of 1α,25-(OH)2D3 at 50% of its activity (B50); vitamin D-deficient chicks injected 10 consecutive days
Decide using Ca serum chick alone. Strictly below 0.4%: Met. Equal to or above 0.4%: Not met.

1) C=C1C(=CC=CCC2(C)CCC(CCCC(O)(CC)CC)C2(C)C)CC(O)CC1O (stereo not drawn) [Compound 16] :: Met

// query Quick check: Ca serum chick of C=C1/C(=C\C=C2/CCC[C@](C)([C@H](C)[C@H](C)CC[C@@H](O)C(C)C)C2)C[C@@H](O)C[C@@H]1O under 0.4%?
// result Not met

// query Quick check: Ca serum chick of CC(CC#CC(C)(C)O)C1CCC2C(=CC=C3CC(O)CC(O)C3)CCCC21C (stereo not drawn) [Compound 44] under 0.4%?
// result Met

// query Quick check: Ca serum chick of CC(CCCC(C)(C)O)C(C)C1(C)CCCC(=CC=C2CC(O)CC(O)C2)C1 (stereo not drawn) under 0.4%?
// result Met

// query Quick check: Ca serum chick of C=C1C(=CC=CCC2(C)CCC(OCCC(O)(CC)CC)C2(C)C)CC(O)CC1O (stereo not drawn) under 0.4%?
// result Met

// query Quick check: Ca serum chick of CC(CC#CC1(C)CO1)C1CCC2C(=CC=C3CC(O)CC(O)C3)CCCC21C (mixture of isomers) under 0.4%?
// result Not met

// query Quick check: Ca serum chick of C=C1C(=CC=CCC2(C)CCC(CCCC(C)(C)O)C2(C)C)CC(O)CC1O (stereo not drawn) under 0.4%?
// result Met

// query Quick check: Ca serum chick of C=C1C(=CC=CCC2(C)CCC(CCCC(O)(CC)CC)C2(C)C)CC(O)CC1O (stereo not drawn) [Compound 12] under 0.4%?
// result Met

// query Quick check: Ca serum chick of CC(CCCC(C)(C)O)C1CCC2C(=CC=C3CC(O)CC(O)C3)CCCC21C (stereo not drawn) under 0.4%?
// result Met

// query Quick check: Ca serum chick of CCC(O)(C#CCC(C)C1CCC2C(=CC=C3CC(O)CC(O)C3)CCCC21C)CC (stereo not drawn) under 0.4%?
// result Not met

// query Quick check: Ca serum chick of C=C1/C(=C\C=C2/CCC[C@](C)([C@H](C)[C@H](C)CCCC(C)(C)O)C2)C[C@@H](O)C[C@@H]1O under 0.4%?
// result Not met

// query Quick check: Ca serum chick of CCC(O)(CC)CCCCC(C)C1CCC2C(=CC=C3CC(O)CC(O)C3)CCCC21C (stereo not drawn) under 0.4%?
// result Met

* * *

Parameter Cell differentation/cell proliferation HL-60: see the listing below.
System: HL-60 cells
testSummary: HL-60 cell differentiation (NBT reduction)
Type: cell-based
conditions: % of the activity of 1α,25-(OH)2D3 at 50% of its activity (B50); human leukemia cells
Form entry: value (%) — number only.

// worked examples, Cell differentation/cell proliferation HL-60 included
1. CCC(O)(C#CCC(C)C1CCC2C(=CC=C3CC(O)CC(O)C3)CCCC21C)CC (stereo not drawn) :: 2200
2. C=C1C(=CC=CCC2(C)CCC(CCCC(C)(C)O)C2(C)C)CC(O)CC1O (stereo not drawn) :: 30

// query Note down Cell differentation/cell proliferation HL-60 recorded for CCC(O)(CC)CCCCC(C)C1CCC2C(=CC=C3CC(O)CC(O)C3)CCCC21C (stereo not drawn)
// result 65

* * *

Parameter Affinity for pig receptor: see the listing below.
targetDesc: UniProt A3RGC1
Sequence (A3RGC1 whole entry): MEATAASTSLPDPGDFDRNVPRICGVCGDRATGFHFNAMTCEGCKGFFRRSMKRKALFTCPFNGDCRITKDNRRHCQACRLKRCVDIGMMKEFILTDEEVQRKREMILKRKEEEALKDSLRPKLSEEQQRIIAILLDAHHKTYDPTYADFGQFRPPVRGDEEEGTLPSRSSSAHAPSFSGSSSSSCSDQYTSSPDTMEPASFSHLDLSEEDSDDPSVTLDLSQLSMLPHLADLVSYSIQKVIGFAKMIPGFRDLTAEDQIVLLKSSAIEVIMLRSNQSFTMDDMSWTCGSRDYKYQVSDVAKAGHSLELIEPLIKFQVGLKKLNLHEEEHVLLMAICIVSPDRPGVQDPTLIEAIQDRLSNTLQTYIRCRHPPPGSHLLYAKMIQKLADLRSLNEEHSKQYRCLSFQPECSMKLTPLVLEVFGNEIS
conditions: % of the activity of 1α,25-(OH)2D3 at 50% of its activity (B50); 1α,25-(OH)2D3 assigned 100%
Form entry: value (%) — number only.

1. CCC(O)(C#CCC(C)C1CCC2C(=CC=C3CC(O)CC(O)C3)CCCC21C)CC (stereo not drawn) :: 40

// query Note down Affinity for pig receptor recorded for CC(CC#CC(C)(C)O)C1CCC2C(=CC=C3CC(O)CC(O)C3)CCCC21C (stereo not drawn) [Compound 44]
// result 26

// query Note down Affinity for pig receptor recorded for CC(CC#CC(C)(C)O)C1CCC2C(=CC=C3CC(O)CC(O)C3)CCCC21C (stereo not drawn) [Compound 46]
// result 30

* * *

Test system: vitamin D-deficient chicks
testSummary: Calcemic effect in vitamin D-deficient chicks (serum calcium)
Format: in vivo, chick
conditions: % of the activity of 1α,25-(OH)2D3 at 50% of its activity (B50); vitamin D-deficient chicks injected 10 consecutive days
Parameter Ca serum chick: see the listing below.

// worked examples, Ca serum chick included
1) CC(CCCCC(C)(C)O)C1CCC2C(=CC=C3CC(O)CC(O)C3)CCCC21C (stereo not drawn) :: 0.4%
2) CC1=C(/C=C\C2=CCC[C@](C)([C@H](C)[C@H](C)CC[C@@H](O)C(C)C)C2)C[C@@H](O)C[C@@H]1O :: <1%

// query Note down Ca serum chick recorded for C=C1/C(=C\C=C2/CCC[C@](C)([C@H](C)[C@H](C)CC[C@H](O)C(C)C)C2)C[C@@H](O)C[C@@H]1O
// result <1%
